Assignment: determine reported IC50 for the given molecules.
biological target: human P2X7 receptor (Homo sapiens, UniProt Q99572, R270H/Y155H); experiment: Evaluation of human P2X7 receptor inhibitory activity (Yo-Pro uptake, BzATP stimulation, FLIPR TETRA); format: cell-based; details: antagonistic activity for the human P2X7 receptor; read-out: IC50

Field request: IC50 | item: "CON=c1nc(Nc2cc(C)ccc2C)n(Cc2cc(F)c(F)c(F)c2)cc1F"
100 to 500 nM

Try "COc1ccc(Nc2nc(=O)c(F)cn2Cc2cc(F)c(F)c(F)c2)c(C)n1" next.
10 to 100 nM

Try "C=C(C)c1ccc(C)c(Nc2nc(=O)c(OC)cn2Cc2ccc(F)c(Cl)c2)c1" next.
10 to 100 nM

Try "COc1cn(Cc2ccc(F)cc2)c(Nc2cc(Oc3ccccn3)ccc2C)nc1=O" next.
10 to 100 nM

Try "COc1cc(Nc2nc(=O)c(OC)cn2Cc2ccccc2)c(C)cc1C" next.
< 10 nM

Try "COc1cn(Cc2ccccc2)c(Nc2cc(OC(F)F)c(C)cc2C)nc1=O" next.
10 to 100 nM

Try "COc1cn(Cc2cc(F)c(F)c(F)c2)c(Nc2cccc3[nH]c(=O)ccc23)nc1=O" next.
100 to 500 nM

Try "Cc1nc2cc(C)c(Nc3nc(=O)c(F)cn3Cc3ccc(F)cc3)cc2s1" next.
< 10 nM

---

target: human P2X7 receptor (Homo sapiens, UniProt Q99572, R270H/Y155H); test: Evaluation of human P2X7 receptor inhibitory activity (Yo-Pro uptake, BzATP stimulation, FLIPR TETRA); assay type: cell-based; settings: antagonistic activity for the human P2X7 receptor; read-out: IC50
Experimental Readout: IC50

Which IC50 is reported with human P2X7 receptor (Homo sapiens, UniProt Q99572, R270H/Y155H) for this entry: "COc1cn(Cc2cc(F)cc(Cl)c2)c(Nc2cc(-c3nnco3)ccc2C)nc1=O" ?
10 to 100 nM

Try "COc1cc(C)c(Nc2nc(=O)c(CO)nn2Cc2cc(F)c(F)c(F)c2)cc1OC" next.
10 to 100 nM

Try "CCOc1c(C)cccc1Nc1nc(=O)c(F)cn1Cc1cc(F)c(F)c(F)c1" next.
< 10 nM

Try "CCc1cc(F)c(OC)cc1Nc1nc(=O)c(OC)cn1Cc1ccc(F)c(F)c1" next.
< 10 nM

Try "CCOc1ccc(Nc2nc(=O)c(F)cn2Cc2ccc(F)c(Cl)c2)c(C)c1" next.
10 to 100 nM

Try "COc1cc(C)c(Nc2nc(=O)c(OC)cn2Cc2ccc(F)cc2)cc1Cl" next.
< 10 nM

Try "COc1cc(C)c(Nc2nc(=O)c(C#N)cn2Cc2ccc(F)c(F)c2)cc1C" next.
< 10 nM

Try "Cc1ccc(CO)cc1Nc1nc(=O)c(F)cn1Cc1ccc(F)c(F)c1" next.
< 10 nM

---

molecular target: human P2X7 receptor (Homo sapiens, UniProt Q99572, R270H/Y155H); assay: Evaluation of human P2X7 receptor inhibitory activity (Yo-Pro uptake, BzATP stimulation, FLIPR TETRA); type: cell-based; details: antagonistic activity for the human P2X7 receptor; read-out: IC50
Experimental Readout: IC50

Field request: IC50 | item: "COc1cn(Cc2ccc(F)c(Cl)c2)c(Nc2cc(Cl)cc3[nH]ccc23)nc1=O"
10 to 100 nM

Try "Cc1ccc(-c2ncco2)cc1Nc1nc(=O)c(F)cn1Cc1ccc(F)c(F)c1" next.
< 10 nM

Try "COCc1cn(Cc2cc(F)c(F)c(F)c2)c(Nc2cc(-c3ncco3)ccc2C)nc1=O" next.
10 to 100 nM

Try "Cc1cc(N(C)C)ccc1Nc1nc(=O)c(F)cn1Cc1cc(F)c(F)c(F)c1" next.
< 10 nM

Try "Cc1cc(Nc2nc(=O)ccn2Cc2cc(F)c(F)c(F)c2)c2cc[nH]c2c1" next.
< 10 nM

Try "COc1cc(C)c(Nc2nc(=O)c(OC)cn2Cc2cc(F)c(F)c(F)c2)cc1OC" next.
< 10 nM

Try "COc1nc(C)c(Nc2nc(=O)c(F)cn2Cc2ccc(F)c(Cl)c2)cc1C" next.
< 10 nM

Try "COc1cn(Cc2ccc(F)c(Cl)c2)c(Nc2cc3c(cc2C)OCC3)nc1=O" next.
< 10 nM
